# protocol text: xn = mol fraction of the nth substance listed
# test context: 298.15 K; 101 kPa; Liquid; Vibrating tube method; x1 = 0.6
readout label: mass density (kg/m3)

[[record]]
molecule = "C=C[Si](C)(C)O[Si](C)(C)C=C [1,3-diethenyl-1,1,3,3-tetramethyldisiloxane] + Clc1ccccc1"
unit_string = "kg/m3"
readout_value = 879.04

[[record]]
molecule = "C=C[Si](C)(C)O[Si](C)(C)C=C [1,3-diethenyl-1,1,3,3-tetramethyldisiloxane] + Fc1ccccc1"
unit_string = "kg/m3"
readout_value = 854.19

[[record]]
molecule = "C=C[Si](C)(C)O[Si](C)(C)C=C [1,3-diethenyl-1,1,3,3-tetramethyldisiloxane] + COc1ccccc1"
unit_string = "kg/m3"
readout_value = 855.21

[[record]]
molecule = "C=C[Si](C)(C)O[Si](C)(C)C=C [1,3-diethenyl-1,1,3,3-tetramethyldisiloxane] + CCc1ccccc1"
unit_string = "kg/m3"
readout_value = 824.53


###

# protocol text: refractive index (Na D-line) (dimensionless)
# test context: 288.15 K; 101.33 kPa; Liquid; Standard Abbe refractometry
Listed here: items and their measured refractive index.
readout label: refractive index

[[record]]
compound_smiles = "C=C[Si](C)(C)O[Si](C)(C)C=C"
readout_value = 1.415

[[record]]
compound_smiles = "Clc1ccccc1"
readout_value = 1.52722

[[record]]
compound_smiles = "O=[N+]([O-])c1ccccc1"
readout_value = 1.55485

[[record]]
compound_smiles = "CCc1ccccc1"
readout_value = 1.49845

[[record]]
compound_smiles = "Fc1ccccc1"
readout_value = 1.46859

[[record]]
compound_smiles = "COc1ccccc1"
readout_value = 1.51985


###

# protocol text: refractive index (Na D-line) (dimensionless); xn = mol fraction of the nth substance listed
# test context: 283.15 K; 101 kPa; Liquid; Standard Abbe refractometry; x1 = 0.15
readout label: refractive index

[[record]]
compound = "C=C[Si](C)(C)O[Si](C)(C)C=C [1,3-diethenyl-1,1,3,3-tetramethyldisiloxane] + O=[N+]([O-])c1ccccc1"
readout_value = 1.52202

[[record]]
compound = "C=C[Si](C)(C)O[Si](C)(C)C=C [1,3-diethenyl-1,1,3,3-tetramethyldisiloxane] + Fc1ccccc1"
readout_value = 1.45637

[[record]]
compound = "C=C[Si](C)(C)O[Si](C)(C)C=C [1,3-diethenyl-1,1,3,3-tetramethyldisiloxane] + Clc1ccccc1"
readout_value = 1.50029

[[record]]
compound = "C=C[Si](C)(C)O[Si](C)(C)C=C [1,3-diethenyl-1,1,3,3-tetramethyldisiloxane] + COc1ccccc1"
readout_value = 1.49596


###

Listed here: items and their measured mass density.
# protocol text: xn = mol fraction of the nth substance listed
# test context: 298.15 K; 101 kPa; Liquid; Vibrating tube method; x1 = 0.15
readout label: mass density (kg/m3)

[[record]]
compound = "C=C[Si](C)(C)O[Si](C)(C)C=C [1,3-diethenyl-1,1,3,3-tetramethyldisiloxane] + O=[N+]([O-])c1ccccc1"
unit_string = "kg/m3"
readout_value = 1097.43

[[record]]
compound = "C=C[Si](C)(C)O[Si](C)(C)C=C [1,3-diethenyl-1,1,3,3-tetramethyldisiloxane] + Fc1ccccc1"
unit_string = "kg/m3"
readout_value = 957.17

[[record]]
compound = "C=C[Si](C)(C)O[Si](C)(C)C=C [1,3-diethenyl-1,1,3,3-tetramethyldisiloxane] + Clc1ccccc1"
unit_string = "kg/m3"
readout_value = 1022.56

[[record]]
compound = "C=C[Si](C)(C)O[Si](C)(C)C=C [1,3-diethenyl-1,1,3,3-tetramethyldisiloxane] + COc1ccccc1"
unit_string = "kg/m3"
readout_value = 944.14


The reported measurements were obtained from the NIST ThermoML archive (doi:10.1016/j.jct.2013.12.025).
